Listed here: items and their measured IC50.
target: Dual specificity protein kinase TTK (Homo sapiens); assay: Inhibition of MPS1 (unknown origin)
Sequence (P33981 whole entry): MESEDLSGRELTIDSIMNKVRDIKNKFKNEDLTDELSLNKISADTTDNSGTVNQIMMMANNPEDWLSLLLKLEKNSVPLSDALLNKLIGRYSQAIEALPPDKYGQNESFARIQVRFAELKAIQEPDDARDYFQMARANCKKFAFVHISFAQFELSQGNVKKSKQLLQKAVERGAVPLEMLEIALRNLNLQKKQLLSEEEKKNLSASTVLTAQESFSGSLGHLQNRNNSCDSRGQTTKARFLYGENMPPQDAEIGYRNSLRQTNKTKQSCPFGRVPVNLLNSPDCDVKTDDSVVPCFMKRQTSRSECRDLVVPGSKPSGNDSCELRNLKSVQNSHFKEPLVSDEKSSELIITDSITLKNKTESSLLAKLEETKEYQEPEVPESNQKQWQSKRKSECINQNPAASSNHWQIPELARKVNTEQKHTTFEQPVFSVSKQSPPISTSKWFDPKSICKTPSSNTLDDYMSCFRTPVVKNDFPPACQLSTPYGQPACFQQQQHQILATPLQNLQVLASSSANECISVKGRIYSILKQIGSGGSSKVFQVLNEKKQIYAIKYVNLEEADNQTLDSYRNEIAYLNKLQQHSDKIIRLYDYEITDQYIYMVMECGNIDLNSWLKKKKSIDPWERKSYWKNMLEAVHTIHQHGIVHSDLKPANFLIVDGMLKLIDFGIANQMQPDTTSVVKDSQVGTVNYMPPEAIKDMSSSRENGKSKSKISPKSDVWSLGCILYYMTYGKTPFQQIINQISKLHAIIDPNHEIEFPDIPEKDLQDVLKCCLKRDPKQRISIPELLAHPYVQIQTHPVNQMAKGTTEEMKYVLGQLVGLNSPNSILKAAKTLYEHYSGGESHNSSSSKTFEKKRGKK

smilesRecord	system	IC50 [nM]
O=C1c2ccccc2-c2n[nH]c3cccc1c23	Dual specificity protein kinase TTK (Homo sapiens)	98
CC(C)CNc1nc(-c2cccc3ncccc23)cn2c(-c3ccc(C(=O)NC4CC4)cc3)cnc12	Dual specificity protein kinase TTK (Homo sapiens)	9

---

assay: Cmax in mouse at 5 mg/kg, iv; assay type: ADME, organism-based; set-up: dose 5 mg/kg, route intravenous; settings: in vivo
measurementLabel: Cmax (µM)

smilesRecord	reading
CCc1cccc(CC)c1NC(=O)c1ccn2c1CCc1cnc(Nc3ccc(N4CCN(C)CC4)cc3OC)nc1-2	3.06
